Target: T1, mfNPR1-mFc:hBNP complex (monkey; human, UniProt P16860 103-134)
T1 construct: also called monkey NPR1 complexed to BNP
Assay: SPR, mAb captured, 25C
Measured 100 nM Ag Bound (RU), listed per entry.
reported.endpoint: 100 nM Ag Bound (RU)

mAb25508 (antibody, human IgG4, V domains shown) VH: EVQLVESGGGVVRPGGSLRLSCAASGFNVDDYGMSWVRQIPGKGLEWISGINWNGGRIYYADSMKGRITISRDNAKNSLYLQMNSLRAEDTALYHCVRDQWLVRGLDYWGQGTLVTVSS VL: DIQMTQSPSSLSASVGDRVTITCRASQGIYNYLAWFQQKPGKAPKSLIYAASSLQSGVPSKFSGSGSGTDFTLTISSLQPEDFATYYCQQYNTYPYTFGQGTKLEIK :: 229 RU
mAb22809 (antibody, human IgG4, V domains shown) VH: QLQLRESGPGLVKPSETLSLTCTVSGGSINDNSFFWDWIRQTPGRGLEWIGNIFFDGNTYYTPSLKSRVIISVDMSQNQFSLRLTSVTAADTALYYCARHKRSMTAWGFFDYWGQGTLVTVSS VL: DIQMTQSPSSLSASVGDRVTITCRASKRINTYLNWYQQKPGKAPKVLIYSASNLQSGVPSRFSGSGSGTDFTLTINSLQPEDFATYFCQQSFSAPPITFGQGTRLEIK :: 80 RU
mAb25479 (antibody, human IgG4, V domains shown) VH: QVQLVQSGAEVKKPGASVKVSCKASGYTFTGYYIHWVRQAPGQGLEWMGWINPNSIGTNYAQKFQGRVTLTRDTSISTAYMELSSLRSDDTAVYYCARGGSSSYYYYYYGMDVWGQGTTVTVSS VL: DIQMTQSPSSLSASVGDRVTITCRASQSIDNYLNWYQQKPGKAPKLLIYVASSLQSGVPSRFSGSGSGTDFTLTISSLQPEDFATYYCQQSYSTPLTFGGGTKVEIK :: 86 RU
mAb22805 (antibody, human IgG4, V domains shown) VH: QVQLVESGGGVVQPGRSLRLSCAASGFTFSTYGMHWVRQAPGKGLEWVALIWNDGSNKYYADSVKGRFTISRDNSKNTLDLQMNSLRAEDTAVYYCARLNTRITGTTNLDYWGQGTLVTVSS VL: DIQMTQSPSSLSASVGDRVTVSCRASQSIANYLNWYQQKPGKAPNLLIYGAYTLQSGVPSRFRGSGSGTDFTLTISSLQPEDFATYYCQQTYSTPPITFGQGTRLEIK :: 113 RU

This collection of values is drawn from patent US20240309103A1.
